Measured values drawn from PubChem BioAssay (NCI) for this set.

system: HS 578T breast; experiment: NCI-60 one-dose screen, 48 h (100 = growth as untreated, 0 = no growth, -100 = all killed); conditions: 10 µM unless noted
This is part of a sample that, as a whole, favours compounds with a hit. Of some 83,000 tested, about 20% had one in any assay.
Response field label: string, one of 1 (growth strictly below 50%) or -1.

Query: Does the reported growth of the following compound sit strictly below 50%? O=C(c1ccc(OCCN2CCOCC2)cc1)C1[C@H](c2ccc(Cl)cc2)[C@@H](c2ccccc2)NC12C(=O)Nc1ccc(Cl)cc12 (some centres undefined)
Response: -1

Query: Is growth of CCCCCCCS(=O)(=O)N1CCCC(C(=O)Nc2nc3ccc(NC(=O)c4ccc(F)c(OC)c4F)cc3s2)C1 (centres undefined) strictly below 50%?
Response: 1

Query: Strictly below 50% in growth? "Cn1cc(-c2nnc(N)nc2-c2c[nH]c3ccccc23)c2cccnc21"
Response: 1

Query: Is the reported growth for "COc1ccc(/C=C/c2nc3ccccc3c(=O)n2CC(=O)Nc2ccc(OC)cc2)cc1" strictly below 50%?
Response: -1

Query: In the record for "COc1cccc(COc2ccc(NC(=O)Nc3ccc(Cl)c(C(F)(F)F)c3)cc2)c1" , is growth less than 50%?
Response: 1

Query: In plain terms, does COc1ccc(NC(=O)[C@H](CO)NC(=O)OC(C)(C)C)cc1C(=O)Nc1cccc(C2CC(=O)c3c(cc(OC)c(OC)c3OC)O2)c1 (some centres undefined) come in under 50% for growth?
Response: -1

Query: Dear reviewer, please state whether "Cc1ccc(C(SCCNCc2cc(N(C)C)ccn2)(c2ccccc2)c2ccccc2)cc1" has growth strictly beneath 50%.
Response: 1

Query: Hello, I'm reviewing records and need to know if growth of "C#CCOc1ccc(/C=N/Nc2nc(-c3ccc(F)cc3)cs2)cc1OC" is below 50%. Could you check?
Response: -1

Query: Does the reported growth of COc1cc(C2CC(c3cc(OC)c(OC)c(OC)c3)=NN2c2ccccc2)ccc1OCc1ccc(C)cc1 (centres undefined) stay below 50%?
Response: -1

Query: Field: below-cutoff. Rule: recorded growth strictly less than 50%. Subject: "NS(=O)(=O)c1ccc(-n2cc(-c3cccc(NC(=O)c4cc(Cl)cc(Cl)c4)c3)nn2)cc1"
Response: -1

Query: A record lists "CCCCSc1nc(Nc2ccc(C(C)=O)cc2)c(C#N)c(-c2ccc(OC)cc2)n1" . Is its growth below 50%?
Response: -1

Query: growth strictly < 50% for this compound? CCOC(=O)/C=C/c1cccc2c1C(=O)NC(C)(c1cc3cc(Br)ccc3oc1=O)N2 (centres undefined)
Response: -1

Query: Quick check: does "COc1ccc2c(c1)c(-c1cc3nc(-c4cn(C)c5ncccc45)cc(N)n3n1)cn2C" have growth under 50%?
Response: 1

Query: Please check: growth for "CCCSc1nc(NCCc2c[nH]c3ccccc23)c(C#N)c(-c2ccccc2)n1" , strictly under 50% or not?
Response: -1

Query: Regarding "CCCCCCCCc1ccc(C(=O)Nc2cccc(P(=O)(O)O)c2)cc1" , kindly confirm whether its growth is beneath 50%.
Response: -1

Query: Is growth strictly under 50% for the entry "COc1cc(/C=C2\C(=N)N=C(SCc3nc4ccccc4[nH]3)NC2=O)ccc1O" ?
Response: -1

Query: Problem: For the compound "CC(C)CSc1nc(NCCc2c[nH]c3ccccc23)c(C#N)c(-c2ccc(Cl)cc2)n1" , is growth under 50%?
Response: -1

Query: Given the entry "Cn1cc(-c2nc(N)nnc2-c2c[nH]c3ccc(Br)cc23)c2cccnc21" , would its reported growth be below 50%?
Response: 1

Query: Threshold test, growth < 50%: "COc1ccc(/C=C/c2n(Cc3ccc4ccccc4c3)c3ccccc3[n+]2Cc2ccc3ccccc3c2)cc1"
Response: 1
